Values compiled from ChEMBL document CHEMBL1201862.

- Test system: HCT-15
So basically: is GI50 under 20 µM? Then Condition met. Not under? Then Condition not met.

Example entries and their recorded answers appear below.
Just wondering, is GI50 of CCC(=O)NCCc1c2c3c(ccnc3c3ncsc13)-c1ccccc1N2 below 20 µM?
Condition met

# TODO verify GI50 < 20 µM strictly for this compound: Cc1cc2nc3c(=O)n(C)c(=O)nc-3n(-c3ccc(Cl)cc3)c2cc1C
Condition met

Dear colleague, could you confirm whether GI50 of CSc1ccc(-c2cn3ccsc3n2)c(O)c1 falls below 20 µM? Thanks.
Condition met

Record NCCCNCCSP(=O)(O)O : is its GI50 strictly below 20 µM?
Condition not met

State whether 20 µM exceeds GI50 recorded for O=C(NCc1cccnc1)NCc1cccnc1 .
Condition not met

I'd appreciate it if you could check whether C[C@]1(CO)CCC[C@@]2(C)C1CC[C@H]1CC3C[C@]12CC[C@]3(C)O (stereo not given in full) has GI50 smaller than 20 µM.
Condition not met

Does the reported GI50 of O=[N+]([O-])c1ccc2nc(=S)[nH]n2c1 stay below 20 µM?
Condition not met

Here's an entry: O=C1NNC(=O)c2ccccc2SSc2ccccc2C(=O)NNC(=O)c2ccccc2SSc2ccccc21 . Is its GI50 below 20 µM?
Condition met

***
Check if GI50 falls below 20 µM for CC1CCN(CC(=O)N2c3ccccc3Sc3cc4ccccc4cc32)CC1 .
Condition not met

In plain terms, does CCOP(=O)(OCC)C(Cc1ccc(Cl)cc1)NS(=O)(=O)c1ccc(C)cc1 (stereo not given) come in under 20 µM for GI50?
Condition not met

Say whether its GI50 is strictly beneath 20 µM. Entry: O=C1/C(=C/c2ccccc2S)N=C(c2ccccc2)N1c1nc2c(Cl)cc(Cl)cc2s1
Condition not met

# strict comparison: is reported GI50 < 20 µM? input = COC(=O)c1sc2c(=O)c(C(=O)OC)c(C(=O)OC)sc2c(=O)c1C(=O)OC
Condition not met

Check if GI50 falls below 20 µM for COc1ccc(-c2onc(-c3ccc([N+](=O)[O-])cc3)c2C2=NCCCN2)cc1 .
Condition not met

Confirm or reject: GI50 of COc1ccc(/C=C2\C(=O)N(NC(C)=O)c3ccccc32)cc1 lies strictly below 20 µM
Condition not met

====

- Tested on: U-251
- protocol: NCI tumour cell line growth inhibition, 48 h
Active and inactive are the calls of the source. Rule as the data show it: active = GI50 up to about 1.1 µM and inactive = higher.
Can you answer with just one of these options? active, inactive

Examples with answers:
Hi, sorry to bother you, what did the test record for Cc1cn(CC2=NCCCN2)c(=O)[nH]c1=O ?
inactive

Hi, sorry to bother you, what did the test record for C[C@]1(CO)CCC[C@@]2(C)C1CC[C@H]1CC3C[C@]12CC[C@]3(C)O (some centres not stated) ?
inactive

Short answer needed: outcome of this test for Nc1ncnc2c1ncn2C1OC(CO)C(O)C1N (configuration not stated) ?
inactive

Identify the outcome logged in this assay for the compound shown: CCOC(=O)C1=CC(C)(C(=O)OCC)Nc2c(nc(SC)n(C)c2=O)N1 (configuration not stated)
inactive

# lookup: test call for O=C1C=CC2(C=C1)O[C@H](Cc1ccccc1)[C@@H](Cc1ccccc1)O2
active

New cases:
Called result for CC[N+](CC)(CC)Cc1cn(S(=O)(=O)c2ccccc2)c2ccccc12
inactive

How was CCCNC(=S)N/N=C1\C(=O)Nc2ccccc21 classified in this test?
inactive

For this compound, state the assay outcome: Nc1ccccc1Nc1ccccc1C(=O)[O-].Nc1ccccc1Nc1ccccc1C(=O)[O-].[Zn+2]
inactive

What did this assay record as the result for C[C@H]1C(=O)C2=C[C@H]1CCC(=O)[C@]1(C)CCCC(C)(C)[C@H]1C[C@H]2O ?
inactive

Please state the recorded outcome for this compound: O=c1c(Br)cc2nc3ccccc3sc-2c1Br
inactive

Write down the call the test reported for this compound. Item: Nc1ccn(C2OC(CO)C(O)C2O)c(=O)n1 (configuration not stated)
inactive

For this compound, state the assay outcome: O=C(Oc1ccc(OC(Oc2ccccc2)c2ccccc2)cc1)c1ccccc1 (configuration not stated)
inactive

What did this assay record as the result for CCCCCCCCCCCCCC/C(C(=O)OC)=C(/O)C(=O)OCC ?
inactive

Record request — test call for Nc1nc(Cl)c(/C=N\O)c(NCC2(CO)CCC2)n1
inactive

I'd appreciate the recorded outcome for S=C(Nc1ccccc1)N(Cc1ccccc1)c1ccccc1 from this test.
inactive

Answer briefly: the call reported for Cc1cccc(C)c1NC(=O)C(=O)C(C(=O)c1ccccc1-c1ccccc1)C1OC(=O)c2ccccc21 (configuration not stated) in this assay.
inactive

Query: recorded result category for CN(Cc1ccccc1)/C(=N\C#N)N(Cc1ccccc1)Cc1ccccc1 in this test
inactive

====

GI50 values for the compounds below.
- System: HOP-62
- protocol: NCI tumour cell line growth inhibition, 48 h
The source made the active and inactive calls. No stated cut-off is given here; in the data, active = GI50 up to about 1.1 µM and inactive = higher.

I am curious: what GI50 value has been reported for Cc1cn([C@H]2C[C@](C)(CO)N(C)O2)c(=O)[nH]c1=O ?
> 100 µM (inactive)

Item under review: CC(=O)c1ccc2c(c1)CC1(C2)Cc2cc3c(cc2C1)C(=O)CC3 (stereo not given) . Reported GI50?
2.67 µM (inactive)

What does the record list as GI50 for N#C/C(=C\c1ccc(CP(=O)(O)O)cc1)C(N)=O ?
> 100 µM (inactive)

Quick one: GI50 for O=C1/C(=C/c2ccccc2S)N=C(c2ccccc2)N1c1nc2c(Cl)cc(Cl)cc2s1 ?
16.6 µM (inactive)

Others:
Recorded GI50 of O=C(NNS(=O)(=O)c1ccc(Br)cc1)c1ccc(Cl)cc1NC(=O)C12CC3CC(CC(C3)C1)C2 , please.
19.8 µM (inactive)

====

- System: HT-29
- protocol: NCI tumour cell line growth inhibition, 48 h
The source made the active and inactive calls. Cut-off read from the data, not from the text of the source: active = GI50 up to about 1.1 µM and inactive = higher.
Choose one outcome from this list and give only that: 1.0 (active), 0.0 (inactive)

Could you check what this test reported for COc1cc2oc3cc(=O)cc4oc(-c5ccccc5)cc(c2c2c1CCC(c1ccccc1)O2)c43 (stereo unspecified) ?
0.0

Assay result, entry NC1=NC2=C(CCCC2)C(c2cccs2)S1 (stereo unspecified) — outcome?
0.0

Per the assay record, what outcome was assigned to CCC(=O)NC(Nc1ccccc1F)(C(F)(F)F)C(F)(F)F ?
0.0

Further cases:
Test call, this molecule: Cc1cc2c(cc1O)CC[C@@H]1[C@@H]2CC[C@]2(C)[C@@H](O)CC[C@@H]12
0.0

Recorded test outcome, item O=C1C(=Cc2ccc([N+](=O)[O-])o2)C(=O)N(CCc2ccccc2)S(=O)(=O)N1CCc1ccccc1
0.0

What call does the record list for Cc1ccc(CC2(OCCN(C)C)CCC(C(C)(C)C)CC2)cc1 (stereo unspecified) ?
0.0

Fill in: this test's call for O=C1/C(=C/c2ccccc2S)N=C(c2ccccc2)N1c1nc2c(Cl)cc(Cl)cc2s1 is ___
0.0

// return assay outcome for Cc1[nH]c2c(C)ccc(C)c2c1CC(=O)O
0.0

====

- System: MDA-MB-435
- protocol: NCI tumour cell line growth inhibition, 48 h
Calls of active or inactive are those of the source. Rule as the data show it: active = GI50 up to about 1.1 µM and inactive = higher.
Answer with one of the outcomes active, inactive

// param item: Cn1c2ccccc2c(=NNc2ccc(S(N)(=O)=O)cc2)c2ccccc21 ; yields the recorded call
inactive

Continuing:
Recorded test outcome, item C=C1C(=O)O[C@@H]2CC(CO)=C([C@@H](C)CCCO)[C@@H](OC(=O)/C(C)=C\C)[C@H]12
inactive

Dear colleague, could you share the recorded outcome for CSc1ccc(/C=C2\N=C(c3ccccc3)N(/N=C3\C(=O)Nc4ccccc43)C2=O)cc1 when you have a moment?
inactive

Just curious, what result did c1ccc(/N=C2\c3ccsc3/C(=N/c3ccccc3)c3ccsc32)cc1 get here?
active

Test call, this compound: CCOC(=O)C1CSCCSC1
inactive

Given CCC(C#N)NC(=O)NC(C#N)CC (stereo unspecified) , state the outcome it received in this test.
inactive

For this compound, state the assay outcome: COc1ccc(OC)c2c1ccc1c(C)c3ccccc3c(C)c12
inactive

Which result was noted for this compound in the test: N#C[BH2-][n+]1ccc(C(=O)NNCc2cccc(C(F)(F)F)c2)cc1
inactive

Please let me know the test result on file for FC(F)(F)C1(C(F)(F)F)OC(Cl)(Cl)C(Cl)(Cl)O1 .
inactive

Check the results log: what was the call for c1cc(C[S+]2CCCC2)sc1C[S+]1CCCC1 ?
inactive

Outcome logged for COc1cc(OC)c(NC2=NCCO2)cc1Cl in this assay:
inactive

State the result this test recorded for COc1cc2c(cc1OC)C1C[C@]3(CCN1CC2)C(=O)N(c1ccccc1)C(=O)N3C(C)=O (stereo partly specified) .
inactive

What outcome does the record of this test show for COc1cc2oc3cc(=O)cc4oc(-c5ccccc5)cc(c2c2c1CCC(c1ccccc1)O2)c43 (stereo unspecified) ?
inactive

Status in this test for N#CCc1nc(-c2cc3c(ccc4ccccc43)oc2=O)cs1 ?
inactive

For COC(=O)c1sc2c(=O)c(C(=O)OC)c(C(=O)OC)sc2c(=O)c1C(=O)OC , which call appears in the assay record?
inactive

Could you check what this test reported for COc1ccc(NC(=S)N/N=C2\C(=O)Nc3ccccc32)cc1 ?
inactive
